# assaySummary: self-splicing fitness, log relative to wild type (ln ratio); higher = more splicing; Tetrahymena group I intron in knt gene, E. coli kanamycin selection, DiMSum; sequences stand for … in CUCUCU…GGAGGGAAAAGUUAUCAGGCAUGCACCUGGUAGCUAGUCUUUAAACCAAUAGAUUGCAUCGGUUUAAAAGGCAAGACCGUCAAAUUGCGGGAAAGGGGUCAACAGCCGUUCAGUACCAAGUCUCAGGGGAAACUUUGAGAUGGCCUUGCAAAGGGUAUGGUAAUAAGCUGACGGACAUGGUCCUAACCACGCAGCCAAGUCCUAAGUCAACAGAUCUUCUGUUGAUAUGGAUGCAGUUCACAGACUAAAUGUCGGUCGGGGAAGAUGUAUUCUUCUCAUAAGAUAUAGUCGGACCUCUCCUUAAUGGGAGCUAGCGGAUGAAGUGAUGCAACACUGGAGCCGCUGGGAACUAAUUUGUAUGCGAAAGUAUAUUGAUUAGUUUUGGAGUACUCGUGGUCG;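 note: selection with 25 µg/mL kanamycin versus none on LB agar overnight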
# testParameters: 30 °C
Listed here: items and their measured self-splicing fitness (ln).
Give the figure only, with no unit attached.

Ask | Need self-splicing fitness (ln) of ACAUAGCAAUAUUACGGGGG , thanks.
Reply | -3.09

Ask | Need self-splicing fitness (ln) of GCAGAGCAAUAUUACGGCAU , thanks.
Reply | -3.03

Ask | Need self-splicing fitness (ln) of CUUGAGCAAUAUUACGAGUC , thanks.
Reply | -4.15

Ask | Need self-splicing fitness (ln) of UACAAGCAAUAUUACGGGAU , thanks.
Reply | -3.65

Ask | Need self-splicing fitness (ln) of UGAAAGCAAUAUUACGGGUU , thanks.
Reply | -4.06

Ask | Need self-splicing fitness (ln) of UAGAAGCAAUAUUACGUUAU , thanks.
Reply | -3.81

Others:
Ask | Need self-splicing fitness (ln) of GGAGAGCAAUAUUACGAGCC , thanks.
Reply | -2.64
